# ASSAY_TARGET: T1, Ang2 (UniProt O15123 19-496)
# T1 chain: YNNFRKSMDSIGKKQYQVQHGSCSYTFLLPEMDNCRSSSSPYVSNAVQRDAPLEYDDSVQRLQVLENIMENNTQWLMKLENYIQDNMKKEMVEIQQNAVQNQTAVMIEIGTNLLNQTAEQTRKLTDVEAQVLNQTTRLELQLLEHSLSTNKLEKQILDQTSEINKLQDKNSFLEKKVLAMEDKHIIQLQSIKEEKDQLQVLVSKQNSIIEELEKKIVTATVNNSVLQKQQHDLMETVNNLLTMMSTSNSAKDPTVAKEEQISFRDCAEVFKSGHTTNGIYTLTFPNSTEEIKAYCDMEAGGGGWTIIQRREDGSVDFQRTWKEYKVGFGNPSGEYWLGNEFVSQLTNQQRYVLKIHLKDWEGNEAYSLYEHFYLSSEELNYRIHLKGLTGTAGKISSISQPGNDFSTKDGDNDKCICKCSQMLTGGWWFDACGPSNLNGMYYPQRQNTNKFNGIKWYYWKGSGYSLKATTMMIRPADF
# RUN_DESCRIPTION: direct binding ELISA; MBP fusion
pEC50: −log10 of the molar value.
MEASURED_PROPERTY: pEC50

INSERT INTO assay_data (binder, measured_property, recorded_value) VALUES
  ('AQTNFMPMDNDEGLLYEQFI [L1-7D MDD (ZC12)]', 'pEC50', 9.82),
  ('AQTNFMPMDNDEALLYEEFI [L1-7D MHD (3C3)]', 'pEC50', 7.77);

a. KSLSLSPGGNGTTNFMPMDQDEALLYEEFI [L1-7D MSD (7B2)]
b. AQTNFMPMDQDELLLYEQFI [L1-7D MND (4H4)]
Lab log: flag the item ( a or b ) with the smaller pEC50 figure. Mark your selection by writing its label. a
